- test.name: total protein half-life in vivo (active degradation + dilution); higher = more stable protein
- test.parameters: E. coli NCM3722 delta-hslV; growth: N-lim chemostat; doubling time 6 h
Listed below: total protein half-life in vivo values for each entry.
measured.quantity: total protein half-life in vivo

seq.string	measured.quantity	recorded.result
MSRFIPIELHHASRLLNHGPTVLITSFDEQSQRRNIMAAAWSMPVEFEPPRVAIVVDKSTWTRELIEHNGKFGIVIPGVAATNWTWAVGSVSGRDEDKFNCYGIPVVRGPVFGLPLVEEKCLAWMECRLLPATSAQEEYDTLFGEVVSAAADARVFVEGRWQFDDDKLNTLHHLGAGTFVTSGKRVTAG	total protein half-life in vivo	4.12 h
MAMYQNMLVVIDPNQDDQPALRRAVYLHQRIGGKIKAFLPIYDFSYEMTTLLSPDERTAMRQGVISQRTAWIHEQAKYYLNAGVPIEIKVVWHNRPFEAIIQEVISGGHDLVLKMAHQHDRLEAVIFTPTDWHLLRKCPSPVWMVKDQPWPEGGKALVAVNLASEEPYHNALNEKLVKETIELAEQVNHTEVHLVGAYPVTPINIAIELPEFDPSVYNDAIRGQHLLAMKALRQKFGINENMTHVEKGLPEEVIPDLAEHLQAGIVVLGTVGRTGISAAFLGNTAEQVIDHLRCDLLVIKPDQYQTPVELDDEEDD [P0AAC0]	total protein half-life in vivo	4.73 h
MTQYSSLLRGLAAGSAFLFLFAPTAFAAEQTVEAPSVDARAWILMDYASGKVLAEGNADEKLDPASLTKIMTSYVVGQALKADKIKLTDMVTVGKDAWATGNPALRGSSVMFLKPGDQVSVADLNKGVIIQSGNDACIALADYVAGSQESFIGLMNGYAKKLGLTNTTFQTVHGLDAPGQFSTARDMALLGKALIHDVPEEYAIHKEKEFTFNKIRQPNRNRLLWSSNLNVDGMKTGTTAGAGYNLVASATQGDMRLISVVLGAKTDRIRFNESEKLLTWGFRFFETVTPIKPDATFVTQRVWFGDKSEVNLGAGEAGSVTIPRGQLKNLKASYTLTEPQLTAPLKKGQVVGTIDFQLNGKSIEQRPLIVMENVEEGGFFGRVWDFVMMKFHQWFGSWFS	total protein half-life in vivo	6.22 h
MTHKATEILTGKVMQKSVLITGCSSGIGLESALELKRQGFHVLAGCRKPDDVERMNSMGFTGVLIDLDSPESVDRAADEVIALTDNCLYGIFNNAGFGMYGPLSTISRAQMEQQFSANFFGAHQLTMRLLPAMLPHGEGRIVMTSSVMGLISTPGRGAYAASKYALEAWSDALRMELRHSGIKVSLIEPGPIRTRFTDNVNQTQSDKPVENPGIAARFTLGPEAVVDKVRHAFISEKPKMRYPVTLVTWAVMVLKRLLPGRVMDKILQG [P0AFP4]	total protein half-life in vivo	5.32 h
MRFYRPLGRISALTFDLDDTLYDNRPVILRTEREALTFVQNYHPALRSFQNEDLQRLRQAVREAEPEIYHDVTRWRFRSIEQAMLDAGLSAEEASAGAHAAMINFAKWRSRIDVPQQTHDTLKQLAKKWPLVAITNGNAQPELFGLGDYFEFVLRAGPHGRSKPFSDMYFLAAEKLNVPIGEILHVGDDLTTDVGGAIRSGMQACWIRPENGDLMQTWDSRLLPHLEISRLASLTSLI [P0ADP0]	total protein half-life in vivo	3.79 h
